Before we begin, note that these pIC50 values for Tyrosine-protein kinase receptor UFO (Homo sapiens, UniProt P30530) originate from several publications.
pIC50: −log10 of the molar value.

Known pIC50 results, listed for orientation:
{"molecule": "CC[C@H](C)Nc1ncc2c(OC(CO)CO)ncc([C@H]3CC[C@H](O)CC3)c2n1", "pIC50": "5.00 to 6.00"}
{"molecule": "Cc1ccc(Cl)cc1Nc1ncc2c(OC3CCNCC3)ncc([C@H]3CC[C@H](O)CC3)c2n1", "pIC50": "5.00 to 6.00"}
{"molecule": "COC[C@H](C)Nc1ncc2c(OC3C[C@@H](C)N(C)[C@@H](C)C3)ncc([C@H]3CC[C@H](O)CC3)c2n1 (stereo partly shown)", "pIC50": "6.00 to 7.00"}
{"molecule": "COc1cc2nccc(Oc3ccc(NC(=O)c4cnc(C)c(/C=C/CC(C)C)c4O)cc3F)c2nc1OC", "pIC50": "≥ 7.00"}
{"molecule": "COC[C@H](C)Nc1ncc2c(-c3ccc(C(=O)O)cc3)cc([C@H]3CC[C@H](O)CC3)n2n1", "pIC50": "≥ 7.00"}
{"molecule": "COc1cc2nccc(Oc3ccc(NC(=O)c4cn(C5CC5)cc(-c5ccc(F)cc5)c4=O)nc3)c2cc1OC", "pIC50": 8.15}

Shifting focus to the molecule that follows.
Req: Param item = CNS(=O)(=O)c1ccc(-c2cc([C@H]3CC[C@H](O)CC3)n3nc(N[C@@H](C)CC(F)(F)F)ncc23)cn1 ; retrieve measured pIC50.
Resp: ≥ 7.00
